Measured on: T1, Peptide 8: Biotin-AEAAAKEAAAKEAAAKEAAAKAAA-Tyr-acid (N-terminal biotin; C-terminal acid)
T1 construct: Control peptide without PC
T1 peptide: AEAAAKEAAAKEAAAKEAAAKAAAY
Measurement protocol: scFv ELISA

>  <Binder>
PcOxP_DB03_D12 (scFv, V domains shown, scFv in periplasmic extract) VH: EVQLLESGGGLVQPGGSLRLSCAASGFTNSDFYMEWVRQAPGKGLEWVAASRNKANDYTTELADSVKGRFTISRDNSKNTLYLQMNSLRAEDTAVYYCARDYYGSSYWYFDVWGQGTLVTVSS VL: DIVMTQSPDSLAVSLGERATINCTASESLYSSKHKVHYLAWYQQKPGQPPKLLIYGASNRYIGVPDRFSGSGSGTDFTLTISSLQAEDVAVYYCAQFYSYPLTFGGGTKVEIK

>  <Result unit>
OD450

>  <OD450>
0.04

$$$$
>  <Binder>
PcOxP_DB04_F03 (scFv, V domains shown, scFv in periplasmic extract) VH: EVQLLESGGGLVQPGGSLRLSCAASGFTASDFYMEWVRQAPGKGLEWVAASRWKANDYTTEYADSVKGRFTISRDNSKNTLYLQMNSLRAEDTAVYYCARDIYGSSYWYFDVWGQGTLVTVSS VL: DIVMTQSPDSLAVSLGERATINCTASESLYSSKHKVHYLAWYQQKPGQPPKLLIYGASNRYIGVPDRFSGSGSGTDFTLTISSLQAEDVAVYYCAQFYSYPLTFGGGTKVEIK

>  <Result unit>
OD450

>  <OD450>
0.05

$$$$
>  <Binder>
PcOxP_DB04_B01 (scFv, V domains shown, scFv in periplasmic extract) VH: EVQLLESGGGLVQPGGSLRLSCAASGFTQSDFYMEWVRQAPGKGLEWVAASRNKANDYTTEYADSVKGRFTISRDNSKNTLYLQMNSLRAEDTAVYYCARDYYGESYWYFDVWGQGTLVTVSS VL: DIVMTQSPDSLAVSLGERATINCTASVSLYSSKHKVHYLAWYQQKPGQPPKLLIYGPSNRYIGVPDRFSGSGSGTDFTLTISSLQAEDVAVYYCAQFYSYPLTFGGGTKVEIK

>  <Result unit>
OD450

>  <OD450>
0.05

$$$$
